Molecular target: T1, RatNectin4-His (rat, UniProt D3ZET1 31-348)
T1 construct: Immobilized on the SPR chip; not shown: His tag
T1 sequence: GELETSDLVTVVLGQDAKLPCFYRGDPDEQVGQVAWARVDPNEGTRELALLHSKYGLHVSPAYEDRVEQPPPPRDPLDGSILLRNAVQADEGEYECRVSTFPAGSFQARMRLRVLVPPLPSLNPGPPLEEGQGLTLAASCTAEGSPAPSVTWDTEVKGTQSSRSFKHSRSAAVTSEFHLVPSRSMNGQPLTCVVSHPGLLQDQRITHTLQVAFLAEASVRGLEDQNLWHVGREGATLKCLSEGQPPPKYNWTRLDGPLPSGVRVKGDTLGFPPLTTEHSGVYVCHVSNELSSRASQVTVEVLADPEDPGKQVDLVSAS
Test: SPR, RatNectin4-His immobilized, pH 6.0
measurement-kind: Kd (nM)
Please reply with the bare figure in nM and do not write the unit itself.

In: Look up and report measured Kd for this entry: BAP-143-00-01 (antibody, V domains shown, Used as a conjugate with a linker payload (CAB ADC)) VH: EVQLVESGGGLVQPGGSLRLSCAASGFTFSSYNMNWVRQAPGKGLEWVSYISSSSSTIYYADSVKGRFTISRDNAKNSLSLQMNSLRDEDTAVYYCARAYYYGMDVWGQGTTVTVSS VL: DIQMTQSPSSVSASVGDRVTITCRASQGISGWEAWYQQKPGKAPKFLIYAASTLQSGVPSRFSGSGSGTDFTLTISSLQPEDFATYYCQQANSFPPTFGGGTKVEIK
Out: 1.17
